// data source = PubChem BioAssay (NCI)

Test system: SK-OV-3 ovarian
assay.overview: NCI tumour cell line growth inhibition, 48 h
Below is a list of entries, each paired with its recorded TGI value.

Record excerpt, results attached:
>>> result("O=C(COc1ccccc1)NNc1ccccc1")
"> 300 µM"
>>> result("O=C1CCCc2ccc([N+](=O)[O-])c(O)c21")
"> 100 µM"
>>> result("COc1ccc(OC)c(N2CC(O)=C(c3nc4ccccc4s3)C2=N)c1")
"> 100 µM"
>>> result("CCN(CC)CCCNc1ccc([N+](=O)[O-])c2nc3ccccc3c(N)c12")
"3.4 µM"
>>> result("CN(C)c1ccc(N=C2N=C(Nc3ccccc3)C(=Nc3ccccc3)S2)cc1")
"> 100 µM"

For reference, reported TGI for `COc1cc(CSc2nc3ccc(Cl)cc3c(=O)n2Cc2ccccc2)cc(OC)c1OC` stands at 17.7 µM

Quick note, TGI for CC1OC(n2cc(F)c(=O)[nH]c2=O)CCC1=O (stereo unspecified) landed at > 100 µM

The compound listed as `S=C(NCCc1ccccn1)N/N=C(\c1ccccc1)c1ccccn1` has a reported TGI of > 66.2 µM

The reported value for `COc1cc2c3c(n(CCCN=[N+]=[N-])c(=O)c2cc1OC)-c1ccccc1C3=O` in terms of TGI is > 100 µM

TGI recorded for this compound, CCc1cccc(C(C)C)c1NC(=O)/C(=N\NC(N)=O)C(C(=O)OC)c1cnc2ccccc2n1 (stereo unspecified) , is > 100 µM

Lookup result for `Nc1ccc(Oc2ccc(C34CC5CC(C3)CC(c3ccc(Oc6ccc(N)cc6C(F)(F)F)cc3)(C5)C4)cc2)c(C(F)(F)F)c1` ; measured TGI: 35.4 µM

Note to self: TGI recorded for Cc1ccc(NC(=O)C2C3C=CC(O3)C2C(=O)O)cc1 (stereo unspecified) was > 100 µM

Documented TGI of `Cc1ccc(-c2cc(C(=O)Nc3ccc(S(=O)(=O)N4CCCCC4)cc3)[nH]n2)c(O)c1` : > 100 µM

Query `COC(=O)[C@H](Cc1cn(C)cn1)NC(=O)[C@H](CC(C)C)NC(=O)Nc1cc(C(F)(F)F)cc(C(F)(F)F)c1` yields TGI of > 10 µM

Lab note: measured TGI of Fc1cc2nc3n(c2cc1F)C(c1c(F)cccc1F)SC3 (stereo unspecified) was > 100 µM

Kindly note the recorded TGI for COc1cc(C2c3cc4c(cc3OC(NNC(N)=S)C2C)OCO4)cc(OC)c1OC (stereo unspecified) , which is > 100 µM

So for CC(=O)NC(CCCCNCc1ccccc1)C(=O)NCc1ccccc1 (stereo unspecified) , the logged TGI turned out to be > 100 µM

Entry `CCCCCSc1ccc2nc(NC(=O)OCC)sc2c1` , TGI reported as > 100 µM

The recorded TGI for `CC(=O)N1c2ccccc2N(C(C)=O)C1c1ccc(C2N(C(C)=O)c3ccccc3N2C(C)=O)[nH]1` is > 100 µM

compound `COc1cc2c(cc1OC)[C@@H]1C(=O)c3ccc4c(c3O[C@@H]1CO2)C[C@H](C(C)C)O4` , TGI observed: > 81.8 µM

GET /value?item= `O=C(CSCC(=O)N/N=C\c1ccc(F)cc1F)N/N=C\c1ccc(F)cc1F` &field=TGI returns > 100 µM

###

Tested on: UACC-257 melanoma
assay.overview: NCI tumour cell line growth inhibition, 48 h
# key: entry, value: TGI

Below, 5 compounds whose answers are already recorded.
>>> result("COc1cc2c3c(n(CCCN=[N+]=[N-])c(=O)c2cc1OC)-c1ccc(F)cc1C3=O")
"> 100 µM"
>>> result("CC(=O)NC(CCCNC(=O)N(C)N=O)C(=O)NCc1ccccc1 (stereo not given)")
"> 100 µM"
>>> result("CC(C)CNC1=NCC(C)S1 (stereo not given)")
"> 100 µM"
>>> result("CCOC(=O)C(C)NC(=O)NC12CC3CC(CC(F)(C3)C1)C2 (stereo not given)")
"> 100 µM"
>>> result("CCOC(=O)C1=C(C(=O)OCC)SC2(S1)C(C(=O)OCC)=C(C(=O)OCC)Sc1c2ssc1=O")
"3.1 µM"

Could you now look at the following compound, please?
Measured TGI, COC(=O)/C=C1\CCC2[C@@H](C(=O)CC3[C@]2(C)CCC[C@@]3(C)C(=O)OC)C1C (stereo not given in full) : 33.9 µM

###

Reported TGI is given for each of the following compounds.
Tested on: 786-0 renal
assay.overview: NCI tumour cell line growth inhibition, 48 h

Some entries whose results are on file:
>>> result("CCOC(=O)c1c(NC(=S)Nc2ccccc2)sc2c1CCN(C)C2")
"> 100 µM"
>>> result("C=C(C)CC(C(=O)O)c1ccc(C)cc1 (configuration not stated)")
"> 100 µM"
>>> result("N#CC(O)CCOCc1ccccc1 (configuration not stated)")
"> 100 µM"

The compound identified as NC(=O)c1cn(C2CC(O)C(CO)O2)c2ncnc(N)c12 (configuration not stated) registered its TGI at 18.9 µM

compound `O=C1c2cc3c(cc2CC12Cc1ccccc1C2)CCC3` , TGI observed: 64.8 µM

Recorded result, O=C1CCC2(c3ccc(Cl)cc3)Nc3ccccc3N12 (configuration not stated) , TGI: > 100 µM

Summary for this compound, `Cc1cccc2c(=O)c3c(sc12)c(NCCCNCCO)nc1ccccc13` : TGI is 3.4 µM

Recorded TGI (compound CCS1=C2C(=O)CC(C)(C)CC2=Nc2ccccc21 (configuration not stated) ): > 100 µM

###

System: SNB-19 CNS
assay.overview: NCI tumour cell line growth inhibition, 48 h
readout.kind: TGI

See these solved cases before continuing.
>>> result("Nc1ccc(Oc2ccc(C34CC5CC(C3)CC(c3ccc(Oc6ccc(N)cc6C(F)(F)F)cc3)(C5)C4)cc2)c(C(F)(F)F)c1")
"48.9 µM"
>>> result("O=C(C[C@@H]1CCCN2CCCC[C@H]12)N1c2ccccc2Sc2ccc(Cl)cc21")
"31.1 µM"
>>> result("C[n+]1c2ccccc2c(N=[N+]=[N-])c2ccccc21")
"> 10 µM"
>>> result("OCc1ccc(-c2nc(-c3ccc4c(c3)OCO4)c(-c3ccccn3)[nH]2)cc1")
"> 25 µM"

Now turn to the next molecule.
Sample CC(=O)NC(CCCNC(=O)N(C)N=O)C(=O)NCc1ccccc1 (stereo not given) ; TGI observed: > 100 µM

###

Known log10 TGI of a selection of compounds
System: 786-0 renal
assay.overview: NCI tumour cell line growth inhibition, 48 h
Lab note - TGI converted to log10 from values in µM.

>>> numeric_result("Cn1cnc([N+](=O)[O-])c1Sc1n[nH]c(-c2ccc(Cl)cc2)n1")
1.71

log10 TGI measured on `Clc1cc(Br)ccc1-c1ccc(CNCC2CCNCC2)o1` = 0.49

Entry under test: `CCCCCCCCCCCCCCCCn1cc[n+](C)c1` . Its log10 TGI was 0.28

Record summary for `CCOC(=O)NC(=O)c1cn(CCSCCOC(=O)NCCCCCCNC(=O)OCCSCCn2cc(C(=O)NC(=O)OCC)c(=O)n(C)c2=O)c(=O)n(C)c1=O` : reported log10 TGI = 1.90

Memo: `Cc1ccc(S(=O)(=O)N(CCN)c2cc3c4c(c2)Oc2cccc5c2C4c2c(cccc2O3)O5)cc1` , reported log10 TGI: 1.48

What the record says about `COc1cc2c3c(n(CCCN=[N+]=[N-])c(=O)c2cc1OC)-c1ccccc1C3=O` : log10 TGI is 1.84

// `Cc1cccc2c(N)c3cccc(C(=O)NCC[N+](C)(C)Cc4ccccc4[N+](=O)[O-])c3nc12` : log10 TGI value = 1.10

Recorded result, `O=C(Nc1ccc(Cl)c(C(F)(F)F)c1)Nc1ccc(-c2cccnc2)cc1N1CCC(CO)CC1` , log10 TGI: 0.66

###

Attribute: GI50
Test system: A498 renal
assay.overview: NCI tumour cell line growth inhibition, 48 h

>>> result("Oc1ccc(N=Nc2ccc(Br)cc2)c(O)c1")
"3.26 µM"

Lab note: `c1cc[c]([Ge]([O]c2cccc3cccnc23)([c]2ccccc2)[c]2ccccc2)cc1` gave GI50 of 13 µM

Measured GI50 of CC(C)[C@@]12C[C@@H](OC(=O)C3CO3)[C@@](C)(O1)[C@@H]1CC[C@@H](C)[C@H]1[C@@H]2OC(=O)/C=C/c1ccccc1 (stereo partly specified) : 2.05 µM

Please fill in: GI50 reported for `CC(C)(C)c1cc(C[P+](c2ccccc2)(c2ccccc2)c2ccccc2)cc(C(C)(C)C)c1O` = 0.451 µM

Value of GI50 reported for the compound `O=Cc1ccc(-c2ccc(-c3nc4ccccc4s3)cc2)o1` is 3.21 µM

###

Tested on: SF-539 CNS
assay.overview: NCI tumour cell line growth inhibition, 48 h
Each record's TGI is compared with bin 1 = under 20 µM, bin 2 = from 20 µM up to 50 µM, bin 3 = 50 µM and over to give its class.

Observe how each entry below is paired with its result.
>>> class("COc1ccc(Sc2[nH]c(C=O)c3ccccc23)cc1")
"bin 2"
>>> class("CCOC(=O)c1c(NC(=S)Nc2ccccc2)sc2c1CCN(C)C2")
"bin 3"
>>> class("CCOC(=O)C1=C(C(=O)OCC)SC2(S1)C(C(=O)OCC)=C(C(=O)OCC)Sc1c2ssc1=O")
"bin 1"
>>> class("CCc1cccc(C(C)C)c1NC(=O)/C(=N\\NC(N)=O)C(C(=O)OC)c1cnc2ccccc2n1 (stereo unspecified)")
"bin 3"
>>> class("CC(C)(C)c1cc(C[P+](c2ccccc2)(c2ccccc2)c2ccccc2)cc(C(C)(C)C)c1O")
"bin 1"

Challenge: Any idea which band `O=C(NCCCCCCCCNC(=O)Nc1cccc2ccccc12)Nc1cccc2ccccc12` is in?
Response given: bin 2

Challenge: Band for the recorded TGI of `COc1ccc(C(=O)/C=C/c2cc(-c3ccc(OC)c(OC)c3)n[nH]2)cc1OC` ?
Response given: bin 1

Challenge: Which class is correct for the following compound? CC1OC(n2cc(F)c(=O)[nH]c2=O)CCC1=O (stereo unspecified)
Response given: bin 3

Challenge: # classify by TGI band: CCOC(=O)C(C)NC(=O)NC12CC3CC(CC(F)(C3)C1)C2 (stereo unspecified)
Response given: bin 3

Challenge: Could you place `S=C(NCCc1ccccn1)N/N=C(\c1ccccc1)c1ccccn1` in its proper category? Many thanks.
Response given: bin 2

Challenge: Would you mind sorting `C=CCCn1nc(-c2ccccc2)oc1=O` into the appropriate category?
Response given: bin 3

Challenge: Assign a bin to `Cc1[nH]c2ccccc2c1CO`
Response given: bin 2

Challenge: Which bin should I file `COc1ccc(O)c(/C=N\Nc2ccccc2)c1` under?
Response given: bin 3

Challenge: Textbook exercise: identify the category of the compound given here, C/C(=C/CC[C@](C)(OC1OC(CO)C(O)C(O)C1O)[C@H]1CC[C@]2(C)[C@@H]1CC[C@@H]1[C@@]3(C)CC[C@H](O)C(C)(C)[C@@H]3C[C@H](O)[C@]12CO)CO (stereo partly specified) , according to its measured value.
Response given: bin 3
